- system_name: human TLR3 ectodomain (Wuxi Biologics, custom order) (human, UniProt O15455 24-704, biotin (for yeast display))
- test: BLI
pKd: −log10 of the molar value. Where no end group is shown, it is not given here.
result_type: pKd

* minibinder 8.4 (designed binder, also: biotin (for BLI), position not given here) SLEEEAERVVEELVKEFNLSRTQEIALRRYAEYAARAGASEEVIEELLRRVAERLS | 6.64
* minibinder 8.2 (designed binder, also: biotin (for BLI), position not given here) SLEEEAERVVEELVKEFNLSETQEIALRRYAEYAAKAGASEEVIEELLRRVAERLS | 6.22
* minibinder 8.3 (designed binder, also: biotin (for BLI), position not given here) SLEEEAERVVEELVKEFNLSRTQEIALRRYAEYAAKAGASEEVIEELLRRVAERLS | 6.64
* minibinder 8.1 (designed binder, also: biotinylated (site not given here)) SLEEEAERVVEELVKEFNLSRTQEIALRRYAEFAAKAGASEEVIEELLRRVAERLS | 6.16
* minibinder 8.5 (designed binder, also: biotin (for BLI), position not given here) SLEEEAERVVEELVKEFNLSRTQEIALRRYAEYAARATASEEVIEELLRRVAERLS | 6.77

Where do these numbers come from? They come from paper doi:10.1101/2024.04.17.589973.
